Reference source for all entries: patent US10800767B2

target: TR beta-LBD (thyroid hormone receptor beta) (Homo sapiens (Human), UniProt P10828); test: LanthaScreen TR-FRET Thyroid Receptor beta Coactivator Assay (agonist screening); format: biochemical; conditions: THR beta over THR alpha, derived from T3-selectivity normalized data
Sequence (P10828 217-461): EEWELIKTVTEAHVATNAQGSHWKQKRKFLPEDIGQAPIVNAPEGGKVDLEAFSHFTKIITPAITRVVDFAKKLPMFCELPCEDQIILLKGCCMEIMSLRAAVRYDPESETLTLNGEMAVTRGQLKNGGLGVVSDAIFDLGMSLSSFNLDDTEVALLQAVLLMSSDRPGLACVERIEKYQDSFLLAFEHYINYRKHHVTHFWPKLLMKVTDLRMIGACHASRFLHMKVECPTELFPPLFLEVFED
Class (required): determined from THRβ-Selectivity; valid ranges are lower bin (below 6), middle bin (6 to below 30), upper bin (30 or more)

Completed entries (count: 10):
{"columns": ["molecule", "category"],
 "data": [
  ["CC(C)c1cc(Oc2c(Cl)cc(OCc3noc(=O)[nH]3)cc2Cl)nn(C)c1=O", "lower bin"],
  ["CC(C)c1cc(Oc2c(Cl)cc(NC(C)c3noc(=O)[nH]3)cc2Cl)nn(C)c1=O (single isomer, unassigned) [Example 3-P2]", "lower bin"],
  ["CC(C)(C)c1cc(Oc2c(Cl)cc(NC(=O)c3noc(=O)[nH]3)cc2Cl)n[nH]c1=O", "upper bin"],
  ["CC(C)c1cc(Oc2c(Cl)cc(NC(=O)c3noc(=O)[nH]3)cc2Cl)n[nH]c1=O", "upper bin"],
  ["Cc1c(NCc2noc(=O)[nH]2)cc(Cl)c(Oc2cc(C(C)C)c(=O)n(C)n2)c1Cl", "middle bin"],
  ["CC(C)c1cc(Oc2c(Cl)cc(NC(C)c3noc(=O)[nH]3)cc2Cl)nn(C)c1=O (single isomer, unassigned) [Example 3-P1]", "lower bin"],
  ["O=C(Nc1cc(Cl)c(Oc2cc(C3CC3)c(=O)[nH]n2)c(Cl)c1)c1noc(=O)[nH]1", "upper bin"],
  ["Cn1nc(Oc2c(Cl)cc(NC(=O)c3noc(=O)[nH]3)cc2Cl)cc(C(C)(C)O)c1=O", "middle bin"],
  ["CC(C)c1cc(Oc2c(Cl)cc(NCc3noc(=O)[nH]3)cc2Cl)n[nH]c1=O", "middle bin"],
  ["CC(C)c1cc(Oc2c(Cl)cc(NC(=O)c3noc(=O)[nH]3)c(F)c2Cl)nn(C)c1=O", "upper bin"]
]}

Request: Which THRβ-Selectivity category applies to O=C(Nc1cc(Cl)c(Oc2cc(C34CC(C3)C4)c(=O)[nH]n2)c(Cl)c1)c1noc(=O)[nH]1 here?
Result: upper bin

Request: Sort CC(C)c1cc(Cc2c(Cl)cc(NCc3noc(=O)[nH]3)cc2Cl)n[nH]c1=O into one of the categories.
Result: middle bin

Request: Class label required: CC(C)c1cc(Oc2c(Cl)cc(NCc3noc(=O)[nH]3)cc2Cl)nn(C)c1=O
Result: middle bin

Request: Band assignment needed for CC(C)(O)c1cc(Oc2c(Cl)cc(NC(=O)c3noc(=O)[nH]3)cc2Cl)n[nH]c1=O please.
Result: upper bin
